These measurements were taken from the supplement of paper PMC10065799.

# System: Fer (mouse)
# MEASUREMENT_NOTES: phosphorylation enrichment, bacterial display (enrichment ratio); higher = better substrate or ligand; peptides without Tyr show the background
Label yes (1) for high-side phosphorylation enrichment (at or above 0.6) and no (0) for low-side phosphorylation enrichment (below it).

Record excerpt, results attached:
| SEQ_TEXT | STUDY_TARGET | CLASS_ASSIGNMENT |
| --- | --- | --- |
| MAYDRYVAICS [OR8D4_Y123_C120Y] | Fer (mouse) | no (0) |
| ISRLKYPVSQQ [BTK_Y375] | Fer (mouse) | no (0) |
| PPKFFYTRKLL [CYBB_Y41] | Fer (mouse) | no (0) |

Request: Assess whether reported phosphorylation enrichment for INSLKYAFNVS [EIF2B5_Y583_I587V_YF] sits at 0.6 or higher.
Result: no (0)

Request: Reported phosphorylation enrichment at or above 0.6? PDMHSYVVRYN [GRIN2D_Y732_M733V]
Result: no (0)

Request: Determine whether this sequence has phosphorylation enrichment no lower than 0.6: EQKKFYNAMKN [SCN5A_Y1495_K1500N_YF]
Result: no (0)

Request: Determine whether this sequence has phosphorylation enrichment no lower than 0.6: RESFKYLPSSL [CXXC1_Y218_F219L_YF]
Result: no (0)

Request: Test whether the sequence KKKKQYKGKYL [CASK_Y708_D710G] records phosphorylation enrichment of 0.6 or higher.
Result: no (0)

Request: Test whether the sequence RVEDACILTCN [CCT6A_Y229_Y229C] records phosphorylation enrichment of 0.6 or higher.
Result: no (0)

Request: Check the entry YFVVEYRNQKP [MUC17_Y4332_D4334N] : does phosphorylation enrichment equal or exceed 0.6?
Result: yes (1)

Request: Could you verify whether the entry STSYDYCRVPM [BST2_Y8] shows phosphorylation enrichment of no less than 0.6?
Result: yes (1)

---

# Tested on: Fer (mouse)
# MEASUREMENT_NOTES: phosphorylation enrichment, bacterial display (enrichment ratio); higher = better substrate or ligand; peptides without Tyr show the background
# cutoff 0.4 applies to phosphorylation enrichment; >= gives Met, < gives Not met

Please review the entries below; each comes with its answer.
| SEQ_TEXT | CLASS_ASSIGNMENT |
| --- | --- |
| PMFTKYGNGLL [RPGRIP1L_Y196_S199G] | Met |
| THLAPYSDELR [APOA1_Y190] | Met |
| ARRMEYLASQK [FGFR2_Y616_G613R] | Not met |

Request: State whether the measured phosphorylation enrichment reaches 0.4, counting equality as reaching it, for GGKYSYLKVGH [GRM3_Y480]
Result: Met

Request: # check: phosphorylation enrichment of AFGTVYKGLWI [EGFR_Y727] is greater than or equal to 0.4
Result: Met

Request: API: above_or_equal(metric=phosphorylation enrichment, cutoff=0.4) for item YMRGMYFRMTD [PLA2G6_Y541_K545T]
Result: Met

Request: Form field: phosphorylation enrichment at least 0.4? Entry: EQKKYYNAVKK [SCN5A_Y1495_M1498V]
Result: Met

---

# STUDY_TARGET: FGFR3 (UniProt P22607)
# Sequence (P22607 whole entry, looked up): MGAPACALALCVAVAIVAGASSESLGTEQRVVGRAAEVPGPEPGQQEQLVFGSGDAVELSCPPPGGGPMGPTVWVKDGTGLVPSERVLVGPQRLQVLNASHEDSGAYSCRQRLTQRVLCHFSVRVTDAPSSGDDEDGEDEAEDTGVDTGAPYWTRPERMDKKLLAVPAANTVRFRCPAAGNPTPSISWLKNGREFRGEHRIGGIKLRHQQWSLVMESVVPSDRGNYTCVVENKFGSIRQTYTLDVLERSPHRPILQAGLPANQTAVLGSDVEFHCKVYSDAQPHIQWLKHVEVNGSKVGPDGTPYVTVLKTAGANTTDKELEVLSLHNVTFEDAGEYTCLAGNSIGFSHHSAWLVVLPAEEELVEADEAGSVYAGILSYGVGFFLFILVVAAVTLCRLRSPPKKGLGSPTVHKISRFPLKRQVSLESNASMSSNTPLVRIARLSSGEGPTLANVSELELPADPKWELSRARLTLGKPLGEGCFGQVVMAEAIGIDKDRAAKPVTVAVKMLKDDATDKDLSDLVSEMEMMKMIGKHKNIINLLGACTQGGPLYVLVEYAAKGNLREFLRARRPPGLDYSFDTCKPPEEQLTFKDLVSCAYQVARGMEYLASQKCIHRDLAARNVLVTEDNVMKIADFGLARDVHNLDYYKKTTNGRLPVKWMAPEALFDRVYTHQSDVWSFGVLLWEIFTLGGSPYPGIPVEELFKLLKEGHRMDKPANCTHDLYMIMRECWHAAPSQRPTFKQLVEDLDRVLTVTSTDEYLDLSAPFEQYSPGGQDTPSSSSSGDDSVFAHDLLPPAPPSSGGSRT
# MEASUREMENT_NOTES: phosphorylation enrichment, bacterial display (enrichment ratio); higher = better substrate or ligand; peptides without Tyr show the background
Hi, to clarify the labels: met covers phosphorylation enrichment from 0.5 upward, not met covers anything below 0.5.

Completed entries (count: 5):
| SEQ_TEXT | CLASS_ASSIGNMENT |
| --- | --- |
| VNKLVYENING [FRS2_Y306] | not met |
| ISDDKYGRIRL [ARCN1_Y310] | not met |
| MGRVKYGAFIN [GLB1_Y485_N484K_YF] | not met |
| EKKKYYDTKIE [CASP5_Y104] | met |
| CTTIHYNFMRN [TP53_Y234_C238R_YF] | met |

Kindly consider the entry below.
Request: Determine whether measured phosphorylation enrichment meets or exceeds 0.5 for MASTSYDYCRV [BST2_Y6]
Result: met

---

# STUDY_TARGET: Grb2 SH2 (UniProt P62993)
# Sequence (P62993 whole entry, looked up): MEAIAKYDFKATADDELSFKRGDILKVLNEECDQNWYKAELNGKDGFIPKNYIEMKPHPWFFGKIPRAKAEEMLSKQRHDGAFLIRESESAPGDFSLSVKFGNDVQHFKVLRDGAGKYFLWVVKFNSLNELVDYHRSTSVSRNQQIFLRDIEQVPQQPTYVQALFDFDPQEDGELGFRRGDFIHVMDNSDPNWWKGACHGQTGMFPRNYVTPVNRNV
# MEASUREMENT_NOTES: SH2 binding enrichment of the phosphorylated peptide, bacterial display (enrichment ratio); higher = better substrate or ligand; peptides without Tyr show the background
Kind request: treat 0.9 as inclusive, so SH2 binding enrichment at 0.9 or higher is 1 (yes), anything lower is 0 (no).

| SEQ_TEXT | CLASS_ASSIGNMENT |
| --- | --- |
| VKANTYEKFWP [GATM_Y100_YF] | 1 (yes) |

Shifting focus to the sequence that follows.
Request: Is SH2 binding enrichment for SRDPFYEMLAA [CYTH1_Y382] at or above 0.9?
Result: 1 (yes)

---

# System: c-Abl (mouse)
# MEASUREMENT_NOTES: phosphorylation enrichment, bacterial display (enrichment ratio); higher = better substrate or ligand; peptides without Tyr show the background
Some sequences, each annotated with its measured phosphorylation enrichment.
Number only, please.

Solved entries:
| SEQ_TEXT | phosphorylation enrichment |
| --- | --- |
| GMEIVYVFVKK [DNAI2_Y5_YF] | 1.22 |
| SSSGGYGGGFG [KRT19_Y61_A60G_YF] | 0.512 |
| RMETEYGPSVT [MXRA5_Y2717] | 0.92 |
| WQQQSYLDSEI [CTNNB1_Y30_G34E] | 0.581 |
| AGVIIYTSRFQ [PFAS_Y538_A535V] | 0.522 |
| CLAKMYFSAVD [CP_Y539_YF] | 1.03 |
| FQLENYCNGGG [INS_Y108_YF] | 1.76 |
| KAFDMYSGDVM [FAM3D_Y122] | 0.508 |
| CPTIHYNYMCN [TP53_Y234_T230P] | 0.634 |
| IQKKFYRAILE [CHD7_Y1218_YF] | 0.51 |

Next:
Request: Look up c-Abl (mouse) data: phosphorylation enrichment of LRAGVYPEKDQ [DNM2_Y626] , then report it.
Result: 0.803

---

This section presents sequences with their documented phosphorylation enrichment values.
# STUDY_TARGET: MERTK (UniProt Q12866)
# Sequence (Q12866 whole entry, looked up): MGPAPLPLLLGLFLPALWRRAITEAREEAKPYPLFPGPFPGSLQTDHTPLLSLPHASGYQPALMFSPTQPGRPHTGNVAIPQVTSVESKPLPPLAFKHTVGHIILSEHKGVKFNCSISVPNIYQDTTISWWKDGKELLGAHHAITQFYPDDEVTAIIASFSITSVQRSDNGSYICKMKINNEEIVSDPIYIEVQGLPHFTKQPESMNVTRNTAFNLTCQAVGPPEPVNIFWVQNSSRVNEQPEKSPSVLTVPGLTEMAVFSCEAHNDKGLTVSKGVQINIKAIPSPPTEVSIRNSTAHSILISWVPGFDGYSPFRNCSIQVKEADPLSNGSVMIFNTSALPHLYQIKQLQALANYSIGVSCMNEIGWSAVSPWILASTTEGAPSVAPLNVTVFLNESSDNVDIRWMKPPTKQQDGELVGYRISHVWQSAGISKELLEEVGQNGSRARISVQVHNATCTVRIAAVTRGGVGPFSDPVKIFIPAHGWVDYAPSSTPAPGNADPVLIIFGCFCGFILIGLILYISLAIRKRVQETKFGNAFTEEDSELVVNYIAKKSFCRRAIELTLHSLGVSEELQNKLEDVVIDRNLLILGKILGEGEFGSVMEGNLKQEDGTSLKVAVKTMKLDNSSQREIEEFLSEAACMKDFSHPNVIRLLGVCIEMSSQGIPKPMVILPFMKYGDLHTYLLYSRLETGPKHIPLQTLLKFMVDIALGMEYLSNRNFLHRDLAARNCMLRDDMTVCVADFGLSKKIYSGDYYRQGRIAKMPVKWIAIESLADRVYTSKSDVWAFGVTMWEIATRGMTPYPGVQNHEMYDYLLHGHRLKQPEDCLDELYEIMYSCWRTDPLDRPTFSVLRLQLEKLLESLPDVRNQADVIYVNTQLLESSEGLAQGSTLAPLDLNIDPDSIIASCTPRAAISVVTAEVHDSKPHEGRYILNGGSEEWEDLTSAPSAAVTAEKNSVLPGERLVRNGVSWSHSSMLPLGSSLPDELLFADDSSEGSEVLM
# MEASUREMENT_NOTES: phosphorylation enrichment, bacterial display (enrichment ratio); higher = better substrate or ligand; peptides without Tyr show the background
Could you keep your reply to the number by itself?

// worked examples, phosphorylation enrichment included
| SEQ_TEXT | NUMERIC_RESULT |
| --- | --- |
| KDHPDYKYPPR [SOX10_Y171_Q174P] | 0.331 |
| ATKNDYWAMLA [WWOX_Y287_P282A] | 0.499 |
| SWSTSYSGFRC [NKAPL_Y91_Y96C_YF] | 0.424 |

Request: Return phosphorylation enrichment (reported value) for this sequence: ERMKVYVPIGF [EPHX1_Y393_T396I]
Result: 0.478

Request: Give me measured phosphorylation enrichment, please, for this sequence: FFHCTYKKRMI [CLEC12A_Y242_YF]
Result: 0.321

Request: Please give the documented phosphorylation enrichment of SLNEEYTKNKT [MSH2_Y563]
Result: 0.348

---

# STUDY_TARGET: MERTK (UniProt Q12866)
# MEASUREMENT_NOTES: phosphorylation enrichment, bacterial display (enrichment ratio); higher = better substrate or ligand; peptides without Tyr show the background
// phosphorylation enrichment lookup, one value per entry

Past entries and their recorded results:
| SEQ_TEXT | phosphorylation enrichment |
| --- | --- |
| NTDETYCIDNE [TUBB2B_Y200] | 0.598 |
| PMFTKYGNGLL [RPGRIP1L_Y196_S199G] | 0.518 |
| MPIPMYDASQA [CARMIL1_Y637] | 0.566 |
| LADKPYTFEFF [FXN_Y118_D122Y_YF] | 1.22 |
| PQDVTYARLHS [LILRB4_Y412_Q414R] | 0.735 |
| QHNPEYVQQAS [LRRC7_Y1058] | 0.423 |
| FQVRRYDCDCD [CRYGS_Y21_G18V] | 0.553 |
| LYSGDCYRIQG [DDR2_Y740_Y740C] | 6.98 |
| GNLQEYLTRHV [TGFBR2_Y336] | 0.368 |

# context switch: different sequence, same phosphorylation enrichment
Request: In one line, give reported phosphorylation enrichment of the entry MGRVKYGAFIN [GLB1_Y485_N484K_YF] .
Result: 0.443

---

# STUDY_TARGET: EPHB1 (UniProt P54762)
# Sequence (P54762 whole entry, looked up): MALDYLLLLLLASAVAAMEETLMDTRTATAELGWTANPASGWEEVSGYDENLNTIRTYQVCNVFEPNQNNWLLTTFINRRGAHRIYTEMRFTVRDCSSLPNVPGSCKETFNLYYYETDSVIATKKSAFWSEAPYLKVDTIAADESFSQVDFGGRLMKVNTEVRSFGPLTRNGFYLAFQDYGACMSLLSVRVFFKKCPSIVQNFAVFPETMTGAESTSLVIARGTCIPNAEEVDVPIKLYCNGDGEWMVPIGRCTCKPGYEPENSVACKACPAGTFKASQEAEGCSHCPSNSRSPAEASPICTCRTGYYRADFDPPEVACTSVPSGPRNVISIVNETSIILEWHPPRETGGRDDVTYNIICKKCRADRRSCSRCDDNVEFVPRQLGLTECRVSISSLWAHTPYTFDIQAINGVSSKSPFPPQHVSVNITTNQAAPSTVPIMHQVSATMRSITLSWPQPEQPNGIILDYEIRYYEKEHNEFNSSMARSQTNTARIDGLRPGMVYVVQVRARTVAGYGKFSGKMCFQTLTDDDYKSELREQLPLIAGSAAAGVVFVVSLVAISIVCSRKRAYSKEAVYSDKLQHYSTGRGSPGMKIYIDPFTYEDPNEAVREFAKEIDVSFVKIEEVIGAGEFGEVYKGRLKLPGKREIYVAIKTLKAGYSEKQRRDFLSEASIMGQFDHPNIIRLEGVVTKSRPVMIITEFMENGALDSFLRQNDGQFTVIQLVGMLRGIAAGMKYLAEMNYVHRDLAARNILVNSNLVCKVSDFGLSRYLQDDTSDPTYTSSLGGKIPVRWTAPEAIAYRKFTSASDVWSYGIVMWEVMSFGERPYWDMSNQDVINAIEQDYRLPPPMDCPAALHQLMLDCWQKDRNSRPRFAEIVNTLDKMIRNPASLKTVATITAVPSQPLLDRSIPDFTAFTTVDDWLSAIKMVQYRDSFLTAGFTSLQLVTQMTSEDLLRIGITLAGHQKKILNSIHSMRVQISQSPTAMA
# MEASUREMENT_NOTES: phosphorylation enrichment, bacterial display (enrichment ratio); higher = better substrate or ligand; peptides without Tyr show the background
Listed sequences paired with reported phosphorylation enrichment
Hey, just send me the number, nothing else.

These recorded examples may help you get a feel for the data.
| SEQ_TEXT | phosphorylation enrichment |
| --- | --- |
| LPSKDYAEVRR [HP_Y272_G276R] | 1.48 |
| FQKNIYSEELR [LMNA_Y211] | 0.84 |

In the following, a different sequence is considered.
Request: Read off the recorded phosphorylation enrichment for LERFIYNREEL [HLA-DPB1_Y59_F64L_YF]
Result: 0.698
